- study_system: human IGF1R (hIGF1R) (Homo sapiens, UniProt P08069)
- Construct: containing amino acid residues 957-1367 of human IGF1R; made in house; host or cells: Sf9 cells (baculovirus)
- Sequence (P08069 957-1367): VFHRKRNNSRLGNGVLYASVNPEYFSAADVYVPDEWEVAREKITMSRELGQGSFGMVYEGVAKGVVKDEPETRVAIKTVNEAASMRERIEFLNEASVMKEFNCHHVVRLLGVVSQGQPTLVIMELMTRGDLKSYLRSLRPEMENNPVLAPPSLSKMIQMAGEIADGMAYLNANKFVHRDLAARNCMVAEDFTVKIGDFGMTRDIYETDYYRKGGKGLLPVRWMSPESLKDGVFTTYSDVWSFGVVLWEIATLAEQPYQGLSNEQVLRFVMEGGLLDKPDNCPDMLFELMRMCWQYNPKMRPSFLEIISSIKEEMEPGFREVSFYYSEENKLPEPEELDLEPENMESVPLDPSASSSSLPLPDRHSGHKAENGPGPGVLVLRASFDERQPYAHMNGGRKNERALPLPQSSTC
- measurement_protocol: TR-FRET kinase assay of purified hIGF1R
- Assay type: biochemical
- applied_conditions: activated hIGF1R 0.5 nM, 10 μM ATP, values given as pIC50 category, read-out: IGF-1R pIC50 (converted)
result_type: IC50

Worked examples follow.
[[record]]
entry_smiles = "CCCN1CCC=C(c2ccc(Nc3nc(Nc4ccccc4C(N)=O)c4cc[nH]c4n3)c(OC)c2)C1"
result_type = "IC50"
reported = "0.251 to 1 nM"

[[record]]
entry_smiles = "CNC(=O)c1c(F)cccc1Nc1nc(Nc2cc3c(cc2OC)N(C(=O)CN(C)C)CC3)nc2[nH]ccc12"
result_type = "IC50"
reported = "1.26 to 3.98 nM"

[[record]]
entry_smiles = "COc1cc2c(cc1Nc1nc(Nc3cccc(F)c3C(N)=O)c3cc[nH]c3n1)CN(C)CC2"
result_type = "IC50"
reported = "5.01 to 200 nM"


COc1cc2c(cc1Nc1nc(Nc3cc(F)cc(F)c3C(N)=O)c3cc[nH]c3n1)CN(CCF)CC2 has a reported IC50 of 1.26 to 3.98 nM

COc1cc(N2CCOCC2)ccc1Nc1nc(Nc2cc(F)c(F)cc2C(N)=O)c2cc[nH]c2n1 has a reported IC50 of 0.251 to 1 nM

CNC(=O)c1c(F)cccc1Nc1nc(Nc2cc3c(cc2OC)CCN3C(=O)COC)nc2[nH]ccc12 has a reported IC50 of 5.01 to 200 nM

COc1cc2c(cc1Nc1nc(Nc3cccc(F)c3C(N)=O)c3cc[nH]c3n1)CCN2C(=O)CN(C)C has a reported IC50 of 1.26 to 3.98 nM

###

Quick list: IC50 per entry.
- study_system: human IGF1R (hIGF1R) (Homo sapiens)
- Construct: containing amino acid residues 957-1367 of human IGF1R; made in house; host or cells: Sf9 cells (baculovirus)
- measurement_protocol: TR-FRET kinase assay of purified hIGF1R
- Format: biochemical
- applied_conditions: activated hIGF1R 0.5 nM, 10 μM ATP, values given as pIC50 category, read-out: IGF-1R pIC50 (converted)

[[record]]
compound = "CNC(=O)c1c(F)cccc1Nc1nc(Nc2cc3c(cc2OC)CCN3C(=O)CN(C)CCOC)nc2[nH]ccc12 [Example 169]"
result_type = "IC50"
reported = "1.26 to 3.98 nM"


Now look at this one.
Lab note: compound CCCN1CCC=C(c2ccc(Nc3nc(Nc4ccc(C)cc4C(N)=O)c4cc[nH]c4n3)c(C)c2)C1 [Example 32] tested on human IGF1R (hIGF1R) (Homo sapiens); recorded IC50 was 1.26 to 3.98 nM

###

- study_system: NIH-3T3 cells overexpressing human IR (Homo sapiens, UniProt P06213)
- Sequence (P06213 28-1382): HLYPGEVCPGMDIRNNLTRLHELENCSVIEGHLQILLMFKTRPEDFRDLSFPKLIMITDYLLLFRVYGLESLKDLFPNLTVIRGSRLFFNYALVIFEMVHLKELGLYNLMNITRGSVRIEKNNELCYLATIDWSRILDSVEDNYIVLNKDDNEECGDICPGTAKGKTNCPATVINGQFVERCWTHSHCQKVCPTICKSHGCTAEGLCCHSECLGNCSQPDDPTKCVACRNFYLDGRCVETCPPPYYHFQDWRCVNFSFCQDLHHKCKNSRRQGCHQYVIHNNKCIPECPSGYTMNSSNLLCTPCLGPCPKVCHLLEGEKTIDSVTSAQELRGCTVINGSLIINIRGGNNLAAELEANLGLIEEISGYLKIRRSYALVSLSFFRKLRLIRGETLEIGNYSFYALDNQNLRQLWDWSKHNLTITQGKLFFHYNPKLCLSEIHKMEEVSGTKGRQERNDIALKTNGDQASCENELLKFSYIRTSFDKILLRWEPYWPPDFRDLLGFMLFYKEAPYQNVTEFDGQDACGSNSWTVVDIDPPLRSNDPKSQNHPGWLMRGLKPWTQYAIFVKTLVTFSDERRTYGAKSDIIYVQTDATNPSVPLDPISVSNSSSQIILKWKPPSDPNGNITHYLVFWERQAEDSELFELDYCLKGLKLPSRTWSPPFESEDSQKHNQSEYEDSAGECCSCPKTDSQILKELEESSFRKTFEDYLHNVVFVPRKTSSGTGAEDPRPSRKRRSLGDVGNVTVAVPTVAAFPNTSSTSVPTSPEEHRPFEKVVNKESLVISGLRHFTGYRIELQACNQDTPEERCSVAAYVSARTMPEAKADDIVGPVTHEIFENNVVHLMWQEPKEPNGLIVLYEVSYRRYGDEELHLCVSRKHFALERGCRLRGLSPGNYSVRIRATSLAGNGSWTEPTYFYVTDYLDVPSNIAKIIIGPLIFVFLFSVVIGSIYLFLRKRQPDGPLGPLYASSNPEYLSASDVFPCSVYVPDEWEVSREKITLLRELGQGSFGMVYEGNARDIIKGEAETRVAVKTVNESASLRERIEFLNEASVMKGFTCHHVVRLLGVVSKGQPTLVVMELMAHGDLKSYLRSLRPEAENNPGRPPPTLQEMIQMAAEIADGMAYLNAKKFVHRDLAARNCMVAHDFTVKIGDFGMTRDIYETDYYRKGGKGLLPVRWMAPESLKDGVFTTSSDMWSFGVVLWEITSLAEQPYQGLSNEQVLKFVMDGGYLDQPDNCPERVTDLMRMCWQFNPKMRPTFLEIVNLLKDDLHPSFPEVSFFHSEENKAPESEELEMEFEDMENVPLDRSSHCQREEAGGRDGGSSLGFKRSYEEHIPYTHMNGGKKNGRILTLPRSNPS
- measurement_protocol: IR cellular autophosphorylation (DELFIA)
- applied_conditions: 2 h compound, insulin 3 ug/ml for 15 minutes, IC50 category
result_type: IC50

Worked examples follow.
[[record]]
entry_smiles = "CCCN1CCC(c2ccc(Nc3nc(Nc4cc(F)ccc4C(N)=O)c4cc[nH]c4n3)c(OC)c2)CC1"
result_type = "IC50"
reported = "< 100 nM"

[[record]]
entry_smiles = "COc1cc2c(cc1Nc1nc(Nc3cccc(F)c3C(N)=O)c3cc[nH]c3n1)N(C(=O)CCN(C)C)CCC2"
result_type = "IC50"
reported = "100 to 500 nM"

[[record]]
entry_smiles = "COc1cc(N2CCC(N3CCOCC3)CC2)ccc1Nc1nc(Nc2cc(F)c(F)cc2C(N)=O)c2cc[nH]c2n1"
result_type = "IC50"
reported = "> 500 nM"

[[record]]
entry_smiles = "COc1cc2ccn(CC(=O)N(C)C)c2cc1Nc1nc(Nc2cccc(F)c2C(N)=O)c2cc[nH]c2n1"
result_type = "IC50"
reported = "> 500 nM"

[[record]]
entry_smiles = "CCCN1CCC(c2ccc(Nc3nc(Nc4cccc(F)c4C(N)=O)c4cc[nH]c4n3)c(OC)c2)CC1"
result_type = "IC50"
reported = "100 to 500 nM"

[[record]]
entry_smiles = "COc1cc2c(cc1Nc1nc(Nc3cccc(F)c3C(N)=O)c3cc[nH]c3n1)CN(C(=O)CN(C)C)CC2"
result_type = "IC50"
reported = "100 to 500 nM"


Now look at this one.
COc1cc2c(cc1Nc1nc(Nc3cccc(F)c3C(N)=O)c3cc[nH]c3n1)CN(C)CC2 has a reported IC50 of 100 to 500 nM
